tested on: U2OS; experiment: Multiplex assay against U2OS; assay type: toxicity, cell-based; settings: human, 24 h, 1 µM, compound concentration 1 uM
Answer each item with its documented Population Mitochondria Different-Phenotype (%).
# number only, unit % dropped from output

Query :: // lookup Population Mitochondria Different-Phenotype (%) for C[C@H](N)COC(=O)[C@@H](CCCCN)NC(=O)Cc1c(-c2ccc3ccccc3c2)[nH]c2c1ccc1ccccc12
Result :: 1

Query :: // lookup Population Mitochondria Different-Phenotype (%) for Br.CS(=O)(=O)Nc1c(O)ccc2c1CCCC2C1=NCCN1 (centres undefined)
Result :: 2

Query :: // lookup Population Mitochondria Different-Phenotype (%) for CC(C)(C)c1ccc(CSc2cnn(C(C)(C)C)c(=O)c2Cl)cc1 [PYRIDABEN]
Result :: 1

Query :: // lookup Population Mitochondria Different-Phenotype (%) for CN(C)c1ccnc2sc3c(=O)n(N4CCCCCC4)cnc3c12
Result :: 3

###

Answer each item with its documented Population Membrane Permeable-Phenotype (%).
test system: HEK-293T; experiment: Multiplex assay against HEK293T; format: toxicity, cell-based; settings: human, 12 h, 10 µM, compound concentration 10 uM
# number only, unit % dropped from output

Query :: // lookup Population Membrane Permeable-Phenotype (%) for CN(C)CCOc1ccc(/C(=C(/CCCO)c2ccccc2)c2ccc(O)cc2)cc1
Result :: 0

Query :: // lookup Population Membrane Permeable-Phenotype (%) for O=C1COc2nccc(-c3ccccc3F)c2CN1Cc1cc(C(F)(F)F)cc(C(F)(F)F)c1
Result :: 0

Query :: // lookup Population Membrane Permeable-Phenotype (%) for Cc1onc(-c2ccccc2Cl)c1C(=O)N(C)c1ccc(Cl)cc1
Result :: 0

Query :: // lookup Population Membrane Permeable-Phenotype (%) for CCCC(CCC)C(=O)O
Result :: 0

Query :: // lookup Population Membrane Permeable-Phenotype (%) for CN(C)c1ccnc2sc3c(=O)n(N4CCCCCC4)cnc3c12
Result :: 0

Query :: // lookup Population Membrane Permeable-Phenotype (%) for CCCOc1ccc2[nH]cc(C3=CCNCC3)c2n1.Cl
Result :: 0

###

Answer each item with its documented Population Normal (%).
test system: Fibroblast; test: Multiplex assay against human fibroblast; type: toxicity, cell-based; details: 24 h, 10 µM, compound concentration 10 uM

Query :: Report Population Normal (%) for O=C(Nc1cc(C(F)(F)F)cc(C(F)(F)F)c1)c1cc(Cl)ccc1O [IMD-0354] tested on Fibroblast.
Result :: 100%

Query :: Report Population Normal (%) for CN(C)Cc1cccc(NC(=C2C(=O)Nc3cc(C(N)=O)ccc32)c2ccccc2)c1 tested on Fibroblast.
Result :: 100%

Query :: Report Population Normal (%) for CCn1cnc2c(-c3ccc(F)c(-c4ccc(S(=O)(=O)CC)cc4OC)c3)cnnc21 [DARIGABAT] tested on Fibroblast.
Result :: 100%

###

tested on: HEK-293T; assay: Multiplex assay against HEK293T; type: toxicity, cell-based; details: human, 48 h, 10 µM, compound concentration 10 uM
Non-standard residues stand in square brackets, D forms with d. Residues, ends and D or L forms follow the SMILES beside them.
Answer each item with its documented Population Normal (%).
# number only, unit % dropped from output

Query :: // lookup Population Normal (%) for CC(C)C[C@@H]1NC(=O)[C@@H](C(C)C)NC(=O)[C@@H]2CCCN2C(=O)[C@@H](CC(=O)O)NC(=O)[C@@H](Cc2c[nH]c3ccccc23)NC1=O [BQ-123] (cyclo(L[dW][dD]P[dV]))
Result :: 96

Query :: // lookup Population Normal (%) for CC(C)(O)C(=O)N1CCN(c2ccc(C(F)(F)F)c(C3=C(c4c[nH]c5ccccc45)C(=O)NC3=O)c2)CC1
Result :: 91

Query :: // lookup Population Normal (%) for CCC(=O)OCC(=O)[C@@]1(OC(=O)CC)[C@@H](C)C[C@H]2[C@@H]3CCC4=CC(=O)C=C[C@]4(C)[C@@]3(Cl)[C@@H](O)C[C@@]21C [BECLOMETHASONE DIPROPIONATE]
Result :: 94

Query :: // lookup Population Normal (%) for N[C@@]1(C(=O)O)CO[C@H]2[C@H](C(=O)O)[C@H]21
Result :: 95
